# TGT: α-glucosidase
# ASSAY_TEXT: enzyme assay with PNPG substrate, absorbance at […] nm; activation ([…]) at […], inhibition at higher concentration
MEASUREMENT_LABEL: IC50 (µM)
Answers are plain numbers, in µM.

Return reported IC50; argument: C=C(C=O)[C@@H]1C[C@@]2(C)C(=CC1=O)[C@H](OC(=O)/C=C/C=C/C(C)CC(C)CC)CC[C@@H]2C(=O)O (stereo partly shown) [compound 4, 07H239-A] 6.54
